Source of measurements: the supplement of paper PMC13380429

compounds and their reported cell viability
- System: Caco-2
- Assay overview: cell viability relative to DMSO; higher = less toxic
- Condition description: 72 h; 1 nM
Reported endpoint: cell viability

CC(C)c1ccc2c(c1)CC[C@H]1[C@](C)(CN)CCC[C@]21C; 109%
CC(C[N+](C)(C)C)OC(N)=O (stereo unspecified); 121%
C(#Cc1nc2ncccc2nc1OCCN1CCCC1)c1ccccc1; 100%
OCc1ccc(-c2ccc(-c3ccc(CO)s3)o2)s1; 99.2%
OCCN1CCN(CC/C=C2/c3ccccc3Sc3ccc(C(F)(F)F)cc32)CC1; 90.3%
CCOC(=O)Nc1ccc(NCc2ccc(F)cc2)nc1N; 106%
N=C(N)c1cc2ccc(OC(=O)c3cccs3)cc2s1; 97.9%
O=C(Cc1ccccc1)Nc1nc2ccc(Cl)cc2c2nc(-c3ccco3)nn12; 93.7%
CC(C)N[C@H]1CCn2c(=O)[nH]c3cccc(c32)[C@@H]1O; 92.8%
COc1c(C)cnc(Cn2cc(C#CCC(C)(C)O)c3c(Cl)nc(N)nc32)c1C; 105%
CCOC(=O)[C@H](Cc1ccc([N+](=O)[O-])cc1)NC(=O)c1ccccc1; 104%
COc1ccc(Nc2ccn(-c3ccccc3)n2)cc1; 102%
CCCc1nc(C)c2c(=O)nc(-c3cc(S(=O)(=O)N4CCN(CC)CC4)ccc3OCC)[nH]n12; 95.7%
C#CC1(OCC(O)CN2CCN(c3cccc(C(F)(F)F)c3)CC2)CCCCC1 (stereo unspecified); 102%
Nc1ncnc2c1ncn2[C@@H]1O[C@H](COP(=O)(O)O)[C@@H](O)[C@H]1O [adenosine-phosphate]; 114%
C[C@]12CC[C@@H]3c4ccc(O)cc4CC[C@H]3[C@@H]1C[C@@H](O)[C@@H]2O; 97.5%
Cc1cc(NC(=O)C2=C(O)c3ccccc3S(=O)(=O)N2C)no1; 99.4%
O=C(O)Cn1nnc(-c2cc(N3CCC(Oc4cc(F)ccc4Br)CC3)no2)n1; 101%
CC1(C)C[C@@H]1C(=O)N/C(=C\CCCCSC[C@H](N)C(=O)O)C(=O)O [Cilastatin Sodium]; 101%
C[C@@H]1CCC[C@H](C)N1NC(=O)c1ccc(Cl)c(S(N)(=O)=O)c1 [clopamide]; 94.5%
[O-][n+]1cccc(CO)c1 [mepiroxol]; 97.3%
Cc1cccc(C)c1NC(=O)CN1CCN(CCCC(c2ccc(F)cc2)c2ccc(F)cc2)CC1; 83.7%
CC(C)=CCC[C@](C)(O[C@@H]1O[C@H](CO)[C@@H](O)[C@H](O)[C@H]1O)[C@H]1CC[C@]2(C)[C@@H]1[C@H](O)C[C@@H]1[C@@]3(C)CC[C@H](O)C(C)(C)[C@@H]3CC[C@]12C [ginsenoside-C-K]; 91.7%
COc1cc(O)c2c(c1)C(=O)c1cc(C)cc(O)c1C2=O; 100%
CCCCC[C@H](O)/C=C/[C@H]1[C@H](O)CC(=O)[C@@H]1C/C=C\CCCC(=O)O; 101%
CC(C)N(CCC(C(N)=O)(c1ccccc1)c1ccccn1)C(C)C (stereo unspecified) [disopyramide]; 94.4%
Nc1ccc(S(=O)(=O)Nc2ccc(Cl)nn2)cc1; 99.6%
Cc1cccc(Nc2ccccc2C(=O)O)c1C; 97.5%
COc1ccc(CCc2nc3cc(-c4c(C)noc4C)ccc3n2C[C@H](C)N2CCOCC2)cc1Cl; 93.5%
COc1cc(CN(CCN)C(=O)c2cccs2)ccc1OCc1ccccc1; 89.5%
COc1cc(C(=O)NCC2(N(C)C)CCCC2)cc(OC)c1OCc1ccccc1; 95.5%
CC(=O)Nc1ccc(C(=O)Nc2ccccc2N)cc1; 97.3%
C[C@]12CC[C@H]3[C@@H](CCC4=CC(=O)CC[C@@]43C)[C@@H]1CC[C@@H]2C(=O)CO; 100%
NC(=O)c1cccc2cn(-c3ccc([C@@H]4CCCNC4)cc3)nc12; 92.7%
CN1[C@@H]2CC[C@H]1C[C@@H](OC1c3ccccc3CCc3ccccc31)C2; 92.1%
Nc1ncnc2c1ncn2[C@@H]1O[C@H](CO)C[C@H]1O [cordycepin]; 93.9%
